Data provenance: PubChem BioAssay (NCI)

Assay: NCI Yeast Anticancer Drug Screen. Data for the mlh1 rad18 strain (AID 175)
Reported conditions: S. cerevisiae mlh1 rad18 strain growth inhibition; at 50.0 µM; active compounds read high
The panel holds about 79,000 compounds, 15% with a hit somewhere; the sample as a whole holds those more often.
Below, each of the compounds is paired with its reported growth inhibition value.
Record the value in %, omitting the unit from your answer.

Some entries whose results are on file:
CC(=O)[C@@]1(O)CC[C@H]2[C@@H]3CC[C@@H]4CC(=O)CC[C@]4(C)[C@H]3[C@@H](O)C[C@@]21C: -13.5
Cn1/c(=N\N=C\c2ccccc2OCCO)sc2ccccc21: 4.3
Cc1cc2c(C(C)C)c(O)c(O)c(C=Nc3ccccc3[N+](=O)[O-])c2c(O)c1-c1c(C)cc2c(C(C)C)c(O)c(O)c(C=Nc3ccccc3[N+](=O)[O-])c2c1O: -2.3

Fill in: growth inhibition of `CCOc1ccc(NC(=S)N2CCC(CCCC3CCN(C(=S)Nc4ccc(OCC)cc4)CC3)CC2)cc1` is ___
-11.4

Please give the measured growth inhibition for this compound: `CC(C)C(C)(C)C(=O)C(C)(C)C(C)(C)C`
7.95

Query (compound): `O=Cc1c(O)c2ccccc2[nH]c1=O` ; field requested: growth inhibition
3.85

State the recorded growth inhibition for this entry: `O=C(CCl)Oc1ccc([N+](=O)[O-])cc1`
26.6

Given the entry `COC(=O)Cc1cc(COC(C)=O)ccc1C` , report its measured growth inhibition.
-7.8

# growth inhibition lookup, item `CCCC(=O)c1cccs1`
11.9

Any idea what its growth inhibition is? The compound is `FC(F)(F)c1cc(NC2=NCCN=C(Nc3cc(C(F)(F)F)cc(C(F)(F)F)c3)SS2)cc(C(F)(F)F)c1`
-15.6

For the compound CC12CCC3c4ccc(O)cc4CCC3C1CCC2=O (centres undefined) , what growth inhibition is on record?
3.45

// growth inhibition lookup, key: `Cc1cc2nc(C)c(C)nc2cc1C`
-20.4
